# melting point per record follows

Previously resolved entries follow.
>>> print(df.to_string())
                                   compound  endpoint_value
0  Cc1nn(CC(=O)c2ccc(Cl)cc2)c(=O)n1-c1ccc(N2CCN(c3ccc(O)cc3)CC2)cc1          252 °C
1  O=C1c2ccccc2C(=O)N1CCCCOc1ccc(-c2ccccc2)cc1   110 to 111 °C
2  Cc1ccnc2c([N+](=O)[O-])cc(Cc3cnc(N)nc3N)cc12   256 to 258 °C
3                CCN(CC)c1nc(N)c(SC)c(Cl)n1           68 °C
4  CCCN1CCCC2(Cc3ccccc3NC2=O)C1=O (stereo not given)   151 to 154 °C
5                CC1=CC(=C(C#N)C#N)C=C(C)N1   158 to 159 °C
6  COC(=O)C(=O)NCCc1ccc(OCc2ccccc2)c(OCc2ccccc2)c1           84 °C
7          CCCCC(=NNC(=O)OC(C)(C)C)c1ccncc1          156 °C

Retrieve melting point measured for CC(C)(C)OC(=O)N1CCC(CCOc2ccc(C=NO)cc2)CC1 and print it.
114 to 116 °C

From: a melting point compilation (Tetko et al.; mined from patent text by program, amines drawn as free bases though some values may be those of a salt)
